Listed below: DC50 values for each entry.
- system: IRAK4 (Homo sapiens)
- Construct: endogenous in cells; host or cells: OCI-LY10
- Sequence (Q9NWZ3 1-460): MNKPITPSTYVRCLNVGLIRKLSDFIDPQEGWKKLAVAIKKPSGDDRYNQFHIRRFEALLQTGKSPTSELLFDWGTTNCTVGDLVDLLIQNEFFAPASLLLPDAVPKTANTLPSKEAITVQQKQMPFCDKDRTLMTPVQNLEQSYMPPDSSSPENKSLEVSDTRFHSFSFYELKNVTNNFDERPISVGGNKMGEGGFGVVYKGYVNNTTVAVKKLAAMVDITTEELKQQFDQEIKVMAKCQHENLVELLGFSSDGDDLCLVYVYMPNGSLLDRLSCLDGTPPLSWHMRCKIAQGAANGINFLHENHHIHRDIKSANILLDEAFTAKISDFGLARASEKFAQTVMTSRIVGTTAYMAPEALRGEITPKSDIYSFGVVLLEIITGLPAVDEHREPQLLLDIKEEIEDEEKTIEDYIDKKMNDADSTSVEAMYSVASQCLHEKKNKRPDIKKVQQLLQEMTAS
- assay: IRAK4 MSD Degradation in OCI-LY10
- Type: cell-based
- measurementParameters: OCI-LY10 cells, 4 hrs incubation, read-out: IRAK4 degradation in OCI-LY10 at 4 hrs: DC50

molecule: CN(CCO[C@H]1C[C@H](Cc2cccc3c2n(C)c(=O)n3C2CCC(=O)NC2=O)C1)C[C@H]1CC[C@H](n2cc3cc(NC(=O)c4cccc(C(F)(F)F)n4)c(C(F)F)cc3n2)CC1 (stereo partly drawn) [I-309]
system: IRAK4 (Homo sapiens)
DC50: 50 to 100 nM
//
molecule: CN(CC#Cc1ccc2c(c1)n(C)c(=O)n2C1CCC(=O)NC1=O)C[C@H]1CC[C@H](n2cc3cc(NC(=O)c4cccc(C(F)(F)F)n4)c(C(F)F)cc3n2)CC1 (stereo partly drawn) [I-148]
system: IRAK4 (Homo sapiens)
DC50: 500 to 1000 nM
//
molecule: Cn1c(=O)n(C2CCC(=O)NC2=O)c2cccc(C3CCN(C[C@H]4CC[C@H](n5cc6cc(NC(=O)c7cccc(C(F)(F)F)n7)c(C(F)F)cc6n5)CC4)CC3)c21 (stereo partly drawn) [I-263]
system: IRAK4 (Homo sapiens)
DC50: < 50 nM
//
molecule: Cn1c(=O)n(C2CCC(=O)NC2=O)c2cccc(C#CCCCNC[C@H]3CC[C@H](n4cc5cc(NC(=O)c6cccc(C(F)(F)F)n6)c(C(C)(C)O)cc5n4)CC3)c21 (stereo partly drawn) [I-60]
system: IRAK4 (Homo sapiens)
DC50: < 50 nM
//
molecule: CN(C[C@H]1CC[C@H](n2cc3cc(NC(=O)c4cccc(C(F)(F)F)n4)c(C(F)F)cc3n2)CC1)C1CCN(c2cccc3c2n(C)c(=O)n3C2CCC(=O)NC2=O)CC1 (stereo partly drawn) [I-168]
system: IRAK4 (Homo sapiens)
DC50: < 50 nM
//
molecule: COc1cc2nn([C@H]3CC[C@H](CN4CCC(c5cccc6c5n(C)c(=O)n6C5CCC(=O)N(C)C5=O)CC4)CC3)cc2cc1NC(=O)c1cccc(C(F)(F)F)n1 (stereo partly drawn) [I-257]
system: IRAK4 (Homo sapiens)
DC50: 500 to 1000 nM
//
molecule: CN(C[C@H]1CC[C@H](n2cc3cc(NC(=O)c4cnn5cccnc45)c(N4CCOCC4)cc3n2)CC1)C1CCN(Cc2cccc3c2n(C)c(=O)n3C2CCC(=O)NC2=O)CC1 (stereo partly drawn) [I-116]
system: IRAK4 (Homo sapiens)
DC50: < 50 nM
//
molecule: Cn1c(=O)n(C2CCC(=O)NC2=O)c2cccc(CC3CC4(CCN(C[C@H]5CC[C@H](n6cc7cc(NC(=O)c8cccc(C(F)(F)F)n8)c(C(C)(C)O)cc7n6)CC5)CC4)C3)c21 (stereo partly drawn) [I-56]
system: IRAK4 (Homo sapiens)
DC50: < 50 nM

Q: Missing value: DC50, IRAK4 (Homo sapiens), entry COc1cc2nn([C@H]3CC[C@H](CN(C)C4CCN(c5cccc6c5n(C)c(=O)n6C5CCC(=O)N(C)C5=O)CC4)CC3)cc2cc1NC(=O)c1cccc(C(F)(F)F)n1 (stereo partly drawn) [I-283] . Fill in?
Result: 500 to 1000 nM

Q: Missing value: DC50, IRAK4 (Homo sapiens), entry Cn1c(=O)n(C2CCC(=O)NC2=O)c2cccc(N3CCN(C[C@H]4CC[C@H](n5cc6cc(NC(=O)c7cccc(C(F)(F)F)n7)c(OC(F)(F)F)cc6n5)CC4)CC3)c21 (stereo partly drawn) [I-169] . Fill in?
Result: 50 to 100 nM

Q: Missing value: DC50, IRAK4 (Homo sapiens), entry Cn1c(=O)n(C2CCC(=O)NC2=O)c2cccc(C[C@H]3C[C@@]4(CC[C@@H](N(C)C[C@H]5CC[C@H](n6cc7cc(NC(=O)c8cccc(C(F)(F)F)n8)c(C(F)F)cc7n6)CC5)CC4)C3)c21 (stereo partly drawn) [I-155] . Fill in?
Result: < 50 nM

Q: Missing value: DC50, IRAK4 (Homo sapiens), entry CN(C[C@H]1CC[C@H](n2cc3cc(NC(=O)c4ccccn4)c(C(C)(C)O)cc3n2)CC1)C1CCN(c2ccc3c(c2)n(C2CCC(=O)NC2=O)c(=O)n3C)CC1 (stereo partly drawn) [I-86] . Fill in?
Result: 500 to 1000 nM

Q: Missing value: DC50, IRAK4 (Homo sapiens), entry COc1cc2nn([C@H]3CC[C@H](CN4CCC5(CC4)CC(Cc4cccc6c4n(C)c(=O)n6C4CCC(=O)NC4=O)C5)CC3)cc2cc1NC(=O)c1cccc(C(F)(F)F)n1 (stereo partly drawn) [I-109] . Fill in?
Result: 50 to 100 nM

Q: Missing value: DC50, IRAK4 (Homo sapiens), entry Cn1c(=O)n(C2CCC(=O)NC2=O)c2cccc(N3[C@@H]4CC[C@H]3CN(C[C@H]3CC[C@H](n5cc6cc(NC(=O)c7cccc(C(F)(F)F)n7)c(C(C)(C)O)cc6n5)CC3)C4)c21 (stereo partly drawn) [I-285] . Fill in?
Result: 50 to 100 nM

Q: Missing value: DC50, IRAK4 (Homo sapiens), entry COc1cc2nn([C@H]3CC[C@H](CN4CCC5(CC4)CC(Nc4cccc6c4n(C)c(=O)n6C4CCC(=O)NC4=O)C5)CC3)cc2cc1NC(=O)c1cccc(C(F)(F)F)n1 (stereo partly drawn) [I-162] . Fill in?
Result: < 50 nM

Q: Missing value: DC50, IRAK4 (Homo sapiens), entry Cn1c(=O)n(C2CCC(=O)NC2=O)c2ccc(C3CCN(C[C@H]4CC[C@H](n5cc6cc(NC(=O)c7cccc(C(F)(F)F)n7)c(C(F)F)cc6n5)CC4)CC3)cc21 (stereo partly drawn) [I-261] . Fill in?
Result: < 50 nM

Q: Missing value: DC50, IRAK4 (Homo sapiens), entry Cn1c(=O)n(C2CCC(=O)NC2=O)c2cccc(NC[C@H]3CC[C@H](n4cc5cc(NC(=O)c6cccc(C(F)(F)F)n6)c(C(C)(C)O)cc5n4)CC3)c21 (stereo partly drawn) [I-147] . Fill in?
Result: 500 to 1000 nM

Q: Missing value: DC50, IRAK4 (Homo sapiens), entry Cn1c(=O)n(C2CCC(=O)NC2=O)c2cccc(CCOC3CCN(C[C@H]4CC[C@H](n5cc6cc(NC(=O)c7cccc(C(F)(F)F)n7)c(C(C)(C)O)cc6n5)CC4)CC3)c21 (stereo partly drawn) [I-267] . Fill in?
Result: < 50 nM

Q: Missing value: DC50, IRAK4 (Homo sapiens), entry COc1cc2nn([C@H]3CC[C@H](C(=O)N(C)C4CCN(Cc5cccc6c5n(C)c(=O)n6C5CCC(=O)NC5=O)CC4)CC3)cc2cc1NC(=O)c1cccc(C(F)(F)F)n1 (stereo partly drawn) [I-293] . Fill in?
Result: 50 to 100 nM

Q: Missing value: DC50, IRAK4 (Homo sapiens), entry Cn1c(=O)n(C2CCC(=O)NC2=O)c2cccc(CCCC3CCN(C[C@H]4CC[C@H](n5cc6cc(NC(=O)c7cccc(C(F)(F)F)n7)c(C(F)F)cc6n5)CC4)CC3)c21 (stereo partly drawn) [I-300] . Fill in?
Result: 50 to 100 nM

Q: Missing value: DC50, IRAK4 (Homo sapiens), entry Cc1cccc(C(=O)Nc2cc3cn([C@H]4CC[C@H](CN5CCC6(CC5)CC(CCc5cccc7c5n(C)c(=O)n7C5CCC(=O)NC5=O)C6)CC4)nc3cc2C(C)(C)O)n1 (stereo partly drawn) [I-276] . Fill in?
Result: < 50 nM

====

- system: IRAK4 (Homo sapiens, UniProt Q9NWZ3)
- Construct: endogenous in cells; host or cells: OCI-LY10
- assay: IRAK4 MSD Degradation in OCI-LY10
- Type: cell-based
- measurementParameters: OCI-LY10 cells, 24 hrs incubation, read-out: IRAK4 degradation in OCI-LY10 at 24 hrs: DC50
- Description: Degradation of IRAK4 in OCI-LY10 was quantitatively measured using Meso Scale Discovery technology. […] Compounds were then added to the assay plates with a final top concentration of 1 to 10 μM in a 1:3 dilution series with total of 8 doses. […] The assay plates were then incubated at room temperature for 1 hour, washed 3 times with 150 μL/well TBST buffer, and 150 μL/well MSD reading buffer (Meso Scale Discovery catalog number R92TC-2) was added. […]
Listed below: DC50 values for each entry.

compound: COc1cc2nn([C@H]3CC[C@H](CN4CCC5(CC4)CC(CNc4cccc6c4C(=O)N(C4CCC(=O)NC4=O)C6=O)C5)CC3)cc2cc1NC(=O)c1cccc(C(C)(C)F)n1 (stereo partly drawn)
DC50: 50 to 100 nM
--
compound: COc1cc2nn([C@H]3CC[C@H](CN(C)[C@H]4CC[C@H](Nc5cccc6c5C(=O)N(C5CCC(=O)NC5=O)C6=O)CC4)CC3)cc2cc1NC(=O)c1cccc(S(F)(F)(F)(F)F)n1 (stereo partly drawn)
DC50: 50 to 100 nM

Q: Using the record for COc1cc2nn([C@H]3CC[C@H](CN4CCC5(CC4)CC(CNc4cccc6c4C(=O)N(C4CCC(=O)NC4=O)C6=O)C5)CC3)cc2cc1NC(=O)c1cccc(C(F)(F)F)n1 (stereo partly drawn) , report its DC50.
Result: 50 to 100 nM
